Below, each entry is listed with its recorded % Inhibition.
MEASURED TARGET: bacterial NAD synthetase enzyme (Bacillus subtilis, UniProt P08164)
Sequence (P08164 2-272 limits assumed): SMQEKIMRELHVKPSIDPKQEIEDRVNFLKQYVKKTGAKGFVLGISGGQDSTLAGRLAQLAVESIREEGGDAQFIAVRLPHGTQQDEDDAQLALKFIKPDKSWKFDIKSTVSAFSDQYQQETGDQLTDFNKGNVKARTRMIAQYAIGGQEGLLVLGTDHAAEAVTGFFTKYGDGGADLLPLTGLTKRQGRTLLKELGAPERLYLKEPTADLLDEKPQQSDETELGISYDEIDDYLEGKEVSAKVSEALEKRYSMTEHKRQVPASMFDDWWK
ASSAY TEXT: biochemical
Format: biochemical
STATED CONDITIONS: compound at 0.2 mM (Table 312B)
METRIC NAME: % Inhibition

{"columns": ["COMPOUND", "RESULT"],
 "data": [
  ["CN(C)c1ccc(CC(=O)OCCCCCCCCOc2ccccc2N2CCCC2)cc1 [Compound 1046]", "2%"],
  ["C[n+]1cccc(C(=O)OCCCCCCCCOc2ccc([N+](=O)[O-])cc2)c1 [compound 1053]", "72%"],
  ["COC(=O)c1cc2cc(OCc3ccccc3)ccc2n1CCCCCCCOC(=O)c1ccc(CN(C)C)cc1 [Compound 1096]", "140%"],
  ["CN(C)c1ccc(CC(=O)OCCCCCCCCOc2cccc([N+](=O)[O-])c2)cc1 [Compound 1036]", "6%"],
  ["O=C(OCCCCCCCCOc1cccc(N2CCOCC2)c1)c1cccnc1 [Compound 1018]", "17%"],
  ["C[n+]1cccc(C(=O)OCCCCCCCCOc2ccccc2C(=O)Nc2ccccc2)c1 [compound 3054]", "86%"],
  ["CC(=O)c1cccc(OCCCCCCCCOC(=O)Cc2ccc([N+](C)(C)C)cc2)c1 [Compound 1089]", "56%"],
  ["C[N+](C)(C)c1ccc(CC(=O)OCCCCCCCCOc2cccc(N3CCOCC3)c2)cc1 [Compound 1092]", "60%"],
  ["CC(=O)N1CCN(c2ccc(OCCCCCCCCOC(=O)Cc3ccc(N(C)C)cc3)cc2)CC1 [Compound 1025]", "15%"],
  ["COc1ccccc1OCCCCCCCCOC(=O)c1cccnc1 [Compound 1012]", "2%"],
  ["CCCCc1oc2ccccc2c1C(=O)c1ccc(OCCCCCCCCOC(=O)Cc2ccc([N+](C)(C)C)cc2)cc1 [Compound 1084]", "106%"],
  ["NC(=O)c1ccc(OCCCCCCCCOC(=O)c2cccnc2)cc1 [Compound 1014]", "14%"],
  ["C[N+](C)(C)c1ccc(CC(=O)OCCCCCCCCOc2ccccc2[N+](=O)[O-])cc1 [Compound 1075]", "79%"],
  ["C[n+]1cccc(C(=O)OCCCCCCCCOc2ccccc2C(N)=O)c1 [compound 1060]", "19%"],
  ["CC(=O)c1ccccc1OCCCCCCCCOC(=O)c1ccc[n+](C)c1 [compound 1056]", "18%"],
  ["C[n+]1cccc(C(=O)OCCCCCCCCOc2ccc(C=CC(=O)c3ccccc3)cc2)c1 [compound 1063]", "32%"],
  ["COC(=O)c1cc2cc(OCc3ccccc3)ccc2n1CCCCCCCOC(=O)Cc1ccc([N+](C)(C)C)cc1 [compound 1105]", "167%"]
]}
